# credit: PubChem BioAssay (Tox21)

assay: A CellTox Green Cytotoxicity Assay to monitor cytotoxicity in HepG2 cells - 24 hour (AID 1224878); conditions: CellTox Green fluorescence; series mostly up to 76.8 µM; also: % is scaled to controls: 0 for no effect and ±100 for the full control effect; nearly all actives have a fitted effect of over 45% in size
Records with an inconclusive call do not appear. The source made the active and inactive calls. Calls follow the shape of the dose curve; as a rule, active = well fitted activation curve with a large enough effect in the repeat runs; inconclusive = weak or mixed curves; inactive = flat fitted curve, though single readings scatter.
As shown below, each of these molecules has a reported cytotoxicity value.

These recorded examples may help you get a feel for the data.
SMILES STR | cytotoxicity
O=S(=O)(O)c1cc(S(=O)(=O)O)c2ccc3c(S(=O)(=O)O)cc(S(=O)(=O)O)c4ccc1c2c43 | -8.46% [at 15.8 µM] (inactive)
CCCCCCCCCCCCCCCCCO | 1.75% [at 15.8 µM] (inactive)
C=C/C=C/C=C/CCCCC | -3.54% [at 15.8 µM] (inactive)

Please examine the following record next.
Q: Which cytotoxicity value belongs to CCN1CCN(c2cc(-c3ccc(F)cc3)c3c(n2)CCCCCC3)CC1 ?
A: 24% [at 15.8 µM] (inactive)
